target: SARS-CoV E protein (Severe acute respiratory syndrome coronavirus, UniProt P59637); assay type: cell-based
Sequence (P59637 whole entry, looked up): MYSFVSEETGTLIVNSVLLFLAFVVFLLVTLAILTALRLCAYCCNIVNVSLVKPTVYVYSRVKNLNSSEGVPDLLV
We begin with a simple list: items and their reported SARS E protein Inhibition (score/# of times tested).

COMPOUND	ASSAY_SYSTEM	RESULT
N=C(N)NC(=O)/C=C/c1ccc(Cl)c(Cl)c1	SARS-CoV E protein (Severe acute respiratory syndrome coronavirus, UniProt P59637)	4.15/2 score

# ---- query compound ----
Inquiry: Returns the measured SARS E protein Inhibition (score/# of times tested) for the input compound. Input: CC(C)CN(C)c1nc(N)c(C(=O)N=C(N)N)nc1Cl [5-(N-Methyl-N-isobutyl)amiloride, 5-(N-methyl-N-isobutyl)amiloride]
Reply text: 3.13/2 score
